target or test system: the molecule itself
protocol: FRET or BRET; mutant series; 0.2 mg/ml protein, 4 μM Atto550–Ni-NTA and 4 μM Atto647N–Ni-NTA on the His6 tag, 10 mM NaH2PO4/Na2HPO4, 100 mM NaCl pH 7.4; heat-induced polymerization at 55°C; time to half-maximal signal
Catalogue of polymerization half-time (t0.5) values
Give the value in s but do not write s after it.

Known polymerization half-time (t0.5) results, listed for orientation:
[
  {
    "protein": "α1-antitrypsin C232S S283C/P361C (283–361) (natural protein, disulfide bond between C283 and C361 (predominantly in the disulfide-bonded form, >90%); reduced where treated with 100 mM 2-mercaptoethanol, α1-antitrypsin, wild-type (M) ORF on the C232S background; Same construct as m3 with the stated changes; source: E. coli SG13009/pREP4 (pQE-30) or BL21(DE3) (pQE-81L), purified; not shown: His6, N-terminal, kept) DPQGDAAQKTDTSHHDQDHPTFNKITPNLAEFAFSLYRQLAHQSNSTNIFFSPVSIATAFAMLSLGTKADTHDEILEGLNFNLTEIPEAQIHEGFQELLRTLNQPDSQLQLTTGNGLFLSEGLKLVDKFLEDVKKLYHSEAFTVNFGDTEEAKKQINDYVEKGTQGKIVDLVKELDRDTVFALVNYIFFKGKWERPFEVKDTEEEDFHVDQVTTVKVPMMKRLGMFNIQHSKKLSSWVLLMKYLGNATAIFFLPDEGKLQHLENELTHDIITKFLENEDRRCASLHLPKLSITGTYDLKSVLGQLGITKVFSNGADLSGVTEEAPLKLSKAVHKAVLTIDEKGTEAAGAMFLEAIPMSICPEVKFNKPFVFLMIEQNTKSPLFMGKVVNPTQK",
    "quantitative readout": 8970
  },
  {
    "protein": "α1-antitrypsin C232S E162C/V170C (162–170) (natural protein, disulfide bond between C162 and C170 (predominantly in the disulfide-bonded form, >90%); reduced where treated with 100 mM 2-mercaptoethanol, α1-antitrypsin, wild-type (M) ORF on the C232S background; Same construct as m3 with the stated changes; source: E. coli SG13009/pREP4 (pQE-30) or BL21(DE3) (pQE-81L), purified; not shown: His6, N-terminal, kept) DPQGDAAQKTDTSHHDQDHPTFNKITPNLAEFAFSLYRQLAHQSNSTNIFFSPVSIATAFAMLSLGTKADTHDEILEGLNFNLTEIPEAQIHEGFQELLRTLNQPDSQLQLTTGNGLFLSEGLKLVDKFLEDVKKLYHSEAFTVNFGDTEEAKKQINDYVCKGTQGKICDLVKELDRDTVFALVNYIFFKGKWERPFEVKDTEEEDFHVDQVTTVKVPMMKRLGMFNIQHSKKLSSWVLLMKYLGNATAIFFLPDEGKLQHLENELTHDIITKFLENEDRRSASLHLPKLSITGTYDLKSVLGQLGITKVFSNGADLSGVTEEAPLKLSKAVHKAVLTIDEKGTEAAGAMFLEAIPMSIPPEVKFNKPFVFLMIEQNTKSPLFMGKVVNPTQK",
    "quantitative readout": 3930
  },
  {
    "protein": "α1-antitrypsin C232S S292C/T339C (292–339) (natural protein, disulfide bond between C292 and C339 (predominantly in the disulfide-bonded form, >90%); reduced where treated with 100 mM 2-mercaptoethanol, α1-antitrypsin, wild-type (M) ORF on the C232S background; Same construct as m3 with the stated changes; source: E. coli SG13009/pREP4 (pQE-30) or BL21(DE3) (pQE-81L), purified; not shown: His6, N-terminal, kept) DPQGDAAQKTDTSHHDQDHPTFNKITPNLAEFAFSLYRQLAHQSNSTNIFFSPVSIATAFAMLSLGTKADTHDEILEGLNFNLTEIPEAQIHEGFQELLRTLNQPDSQLQLTTGNGLFLSEGLKLVDKFLEDVKKLYHSEAFTVNFGDTEEAKKQINDYVEKGTQGKIVDLVKELDRDTVFALVNYIFFKGKWERPFEVKDTEEEDFHVDQVTTVKVPMMKRLGMFNIQHSKKLSSWVLLMKYLGNATAIFFLPDEGKLQHLENELTHDIITKFLENEDRRSASLHLPKLCITGTYDLKSVLGQLGITKVFSNGADLSGVTEEAPLKLSKAVHKAVLCIDEKGTEAAGAMFLEAIPMSIPPEVKFNKPFVFLMIEQNTKSPLFMGKVVNPTQK",
    "quantitative readout": 2290
  }
]

# next protein below
Entry α1-antitrypsin C232S K168C/F189C (168–189) (natural protein, disulfide bond between C168 and C189 (predominantly in the disulfide-bonded form, >90%); reduced where treated with 100 mM 2-mercaptoethanol, α1-antitrypsin, wild-type (M) ORF on the C232S background; Same construct as m3 with the stated changes; source: E. coli SG13009/pREP4 (pQE-30) or BL21(DE3) (pQE-81L), purified; not shown: His6, N-terminal, kept) DPQGDAAQKTDTSHHDQDHPTFNKITPNLAEFAFSLYRQLAHQSNSTNIFFSPVSIATAFAMLSLGTKADTHDEILEGLNFNLTEIPEAQIHEGFQELLRTLNQPDSQLQLTTGNGLFLSEGLKLVDKFLEDVKKLYHSEAFTVNFGDTEEAKKQINDYVEKGTQGCIVDLVKELDRDTVFALVNYICFKGKWERPFEVKDTEEEDFHVDQVTTVKVPMMKRLGMFNIQHSKKLSSWVLLMKYLGNATAIFFLPDEGKLQHLENELTHDIITKFLENEDRRSASLHLPKLSITGTYDLKSVLGQLGITKVFSNGADLSGVTEEAPLKLSKAVHKAVLTIDEKGTEAAGAMFLEAIPMSIPPEVKFNKPFVFLMIEQNTKSPLFMGKVVNPTQK — recorded polymerization half-time (t0.5) = 21900
